# experimental_protocol: Tmax in rat at 3 mg/kg, po
# Assay type: ADME, organism-based
# Parameters: dose 3 mg/kg, route oral
# protocol_conditions: in vivo
recorded_endpoint: Tmax

>>> result("Cc1cc(C(=O)O)nn1Cc1cc(Br)ccc1OCc1ccccc1")
"30 min"
